Test system: carrageenan pleurisy (3 hour pleural exudate volume)
Test: Carrageenan Pleurisy Assay (CPA), acute anti-inflammatory activity, oral dosing
Format: in vivo
Conditions: po; dose reducing the 3 hour exudate volume by 50%; p.o.; 5 animals per group; read-out: ED50 3 hr. vol. p.o.
Method: Following the procedure previously described by Vinegar et al. in Proc. Soc. Exp. Biol. Med., 143, 711, (1973) as recently modified /Vinegar et al., Eur. J. Rheum. Inflamm., 1, 204 (1978)/ the acute anti-inflammatory activity of 3-deazaadenosine was compared with that of known anti-inflammatory drugs. […] By means of the Carrageenan Pleurisy Assay of Example 1 the duration of action of the tests compounds after a single oral pretreating dose was determined. […]
Quick reference: ED50 of the listed items.
Provide only the numeric value, understood in mg/kg.

Below, each entry is followed by its recorded ED50 result.
molecule: C[C@]12CCC(=O)C=C1CC[C@@H]1[C@@H]2[C@@H](O)C[C@@]2(C)[C@H]1CC[C@]2(O)C(=O)CO [Hydrocortisone]
unit_symbol: mg/kg
ED50: 14

molecule: C[C@]12C=CC(=O)C=C1CC[C@@H]1[C@@H]2[C@@H](O)C[C@@]2(C)[C@H]1CC[C@]2(O)C(=O)CO
unit_symbol: mg/kg
ED50: 3

Incoming: Return reported ED50; argument: `Nc1nccc2c1ncn2[C@@H]1O[C@H](CO)[C@@H](O)[C@H]1O`
Outgoing: 2.8

Incoming: Return reported ED50; argument: `CC(=O)Oc1ccccc1C(=O)O`
Outgoing: 28
